Measurement target: full-length beta-Catenin (Uniprot ID P35222) (Homo sapiens, UniProt P35222)
Construct: 10 nM full-length beta-Catenin (Uniprot ID P35222)
Sequence (P35222 1-781): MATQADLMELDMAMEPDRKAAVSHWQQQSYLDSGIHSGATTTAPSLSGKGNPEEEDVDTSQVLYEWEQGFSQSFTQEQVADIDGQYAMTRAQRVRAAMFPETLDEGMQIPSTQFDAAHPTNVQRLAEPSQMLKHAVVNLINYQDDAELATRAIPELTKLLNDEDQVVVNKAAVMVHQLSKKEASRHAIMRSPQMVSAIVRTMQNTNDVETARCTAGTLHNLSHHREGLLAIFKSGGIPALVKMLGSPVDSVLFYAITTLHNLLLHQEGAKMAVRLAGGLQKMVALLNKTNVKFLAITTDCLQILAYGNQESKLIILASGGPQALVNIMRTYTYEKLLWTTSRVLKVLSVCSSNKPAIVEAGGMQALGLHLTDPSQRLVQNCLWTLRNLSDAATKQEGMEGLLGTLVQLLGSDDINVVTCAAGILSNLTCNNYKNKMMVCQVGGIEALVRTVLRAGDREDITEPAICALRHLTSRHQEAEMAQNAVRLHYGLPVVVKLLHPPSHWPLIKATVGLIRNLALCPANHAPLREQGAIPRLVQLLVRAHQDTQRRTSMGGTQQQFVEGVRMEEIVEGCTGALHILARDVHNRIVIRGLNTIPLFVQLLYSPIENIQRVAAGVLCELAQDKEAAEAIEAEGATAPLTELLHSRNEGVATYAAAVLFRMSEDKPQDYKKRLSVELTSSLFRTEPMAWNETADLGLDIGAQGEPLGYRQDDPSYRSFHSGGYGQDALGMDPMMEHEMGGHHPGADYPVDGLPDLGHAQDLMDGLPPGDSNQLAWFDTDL
Protocol notes: Fluorescence polarization IC50 (beta-catenin / 5FAM-TCF4 10-53 competition)
Format: binding
Measurement conditions: read-out: FP EC50
Measurement name: pIC50
// pIC50 here means minus log10 of the molar concentration (mol/L)

INSERT INTO results (compound, measurement_target, numeric_value) VALUES
  ('CC(=O)N1CCC[C@]12CC=CCCCC1(CCCC=CCCCOC(=O)N3CC[C@@](C(=O)N[C@@H](Cc4ccsc4)C(=O)N[C@@H](Cc4csc5ccccc45)C(=O)N[C@@H](CCC(N)=O)C(N)=O)(C3)NC(=O)[C@H](CC(N)=O)NC(=O)[C@H](Cc3ccccc3)NC(=O)[C@H](C)NC(=O)[C@H](C)NC(=O)[C@H](CCC(=O)O)NC(=O)[C@H](CC(=O)O)NC1=O)NC(=O)[C@H](CC(C)(C)C)NC(=O)[C@H](CC(=O)O)NC2=O (some centres unmarked) [I-690]', 'full-length beta-Catenin (Uniprot ID P35222) (Homo sapiens, UniProt P35222)', 8.15);

Moving on to another compound below.
Reported pIC50, compound CC(=O)N1CCC[C@]12CC=CCCCC1(CCCC=CCCCCCC[C@@](C)(C(=O)N[C@@H](Cc3ccccc3)C(=O)N[C@@H](Cc3csc4ccccc34)C(=O)N[C@@H](Cc3c[nH]cn3)C(N)=O)NC(=O)[C@H](CCC(N)=O)NC(=O)[C@H](Cc3ccccc3)NC(=O)[C@H](C)NC(=O)[C@H](C)NC(=O)[C@H](CCC(=O)O)NC(=O)[C@H](CC(=O)O)NC1=O)NC(=O)[C@H](C)NC(=O)[C@H](CC(=O)O)NC2=O (some centres unmarked) [I-418] : ____ 6.83
